Assay: drug combination growth inhibition, ovarian cancer – cell-based, oncology-focused library, rucaparib conditional, profiling panel (AID 1508598)
Settings: patient-derived ovarian cancer cells, CellTiter-Glo viability, 144 h; at 0.000305 µM; OCI-C5x cells; without rucaparib; stronger effect = lower value
PARAMETER MEASURED: viability (%)
One number for each entry, in %.

Worked set:
> print(dat)
                                   compound  units.label  reported.result
1  Cc1cn(-c2cc(NC(=O)c3ccc(C)c(Nc4nccc(-c5cccnc5)n4)c3)cc(C(F)(F)F)c2)cn1            %              116
2  Cc1cc(Nc2cc(N3CCN(C)CC3)nc(/C=C/c3ccccc3)n2)n[nH]1            %              103
3           NC(=O)c1ccc(I)c([N+](=O)[O-])c1            %              119
4  Cc1cc(Nc2nc(N[C@@H](C)c3ncc(F)cn3)ncc2Cl)n[nH]1            %              105

Provide viability for all items below, preserving their order.
1. C=CCn1c(=O)c2cnc(Nc3ccc(N4CCN(C)CC4)cc3)nc2n1-c1cccc(C(C)(C)O)n1
2. CC(/C=C/C(=O)NO)=C\[C@@H](C)C(=O)c1ccc(N(C)C)cc1
3. COc1ccc(-n2c(SCCCN3C(=O)c4cccc5cccc(c45)C3=O)nnc2-c2ccncc2)cc1

Result:
107
91.4
116

Record viability per entry; entries follow.
1. Cc1ccc(C(=O)N(CCCN)[C@@H](c2oc3cc(Cl)ccc3c(=O)c2Cc2ccccc2)C(C)C)cc1
2. CN1CCN(c2cccc(Nc3nc4c(-c5ccc(S(C)(=O)=O)cc5)cccn4n3)c2)CC1
3. Cc1nc(N)sc1-c1ccnc(Nc2ccc(N3CCOCC3)cc2)n1
4. Nc1cc(C(F)(F)F)c(-c2cc(N3CCOCC3)nc(N3CCOCC3)n2)cn1

Result:
63.1
104
111
125

* * *

Test: JHH-DIPG-1 glioma cell viability, MIPE5.0 library, CellTiter-Glo luminescence, qHTS (AID 1347067);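 further: cells exposed to compound for 48 hours before readout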
Details: JHH-DIPG-1 glioma viability, CellTiter-Glo ATP luminescence
Records with an inconclusive call do not appear. Active and inactive are the calls of the source. No cut-off is given here; in the data, nearly all actives have AC50 up to about 26 µM.
PARAMETER MEASURED: AC50

Observe how each entry below is paired with its result.
> print(dat)
                                   compound  parameter.measured    reported.result
1  O=C(NC[C@H](O)CN1CCc2ccccc2C1)c1cc(NC2COC2)ncn1                AC50           inactive
2  O=C(Nc1ccc2[nH]nc(-c3ccncc3)c2c1)[C@@H]1CCN(CC(=O)N2CCN(c3ccc(-c4ncccn4)cc3)CC2)C1                AC50  0.525 µM (active)
3  Cc1noc(-c2ccc(CSCCC(=O)O)cc2)c1NC(=O)OC(C)c1ccccc1Cl (stereo unspecified)                AC50           inactive
4  c1cc(Nc2cc(C3CC3)[nH]n2)nc(Nc2ccc3nc[nH]c3c2)n1                AC50  0.742 µM (active)
5  C[C@@H](Oc1cc(-c2cnn(C3CCNCC3)c2)cnc1N)c1c(Cl)ccc(F)c1Cl                AC50   8.33 µM (active)

Shifting focus to the compound that follows.
Request: Recorded AC50 for CC(=O)O/N=C1\C(=O)N(Cc2cc(Cl)ccc2Cl)c2ccc(Cl)cc21 , please?
Result: 23.5 µM (active)

* * *

Assay: drug combination growth inhibition, ovarian cancer – cell-based, oncology-focused library, rucaparib conditional, profiling panel (AID 1508598)
Settings: patient-derived ovarian cancer cells, CellTiter-Glo viability, 144 h; at 0.313 µM; OCI-C5x cells; without rucaparib; stronger effect = lower value
Please respond with reported viability for every item in the list.
One number for each entry, in %.

Batch lookup, viability per entry.
1. N#Cc1c(NC(=O)c2cccc3ccccc23)sc2c1CCCC2
2. COc1cc2nccc(Oc3ccc(NC(=O)NC4CC4)c(Cl)c3)c2cc1C(N)=O
3. CN(C)N=Nc1nc[nH]c1C(N)=O
4. COC(=O)c1ccc2c(C(=Nc3ccc(N(C)C(=O)CN4CCN(C)CC4)cc3)c3ccccc3)c(O)[nH]c2c1
5. Cc1ccc(S(=O)(=O)Nc2nc3ccccc3nc2Nc2ccc3nsnc3c2)cc1
6. COCCOc1nc(-c2ccc(Cl)c(Cl)c2)n(-c2ccc(NC(=O)CCl)cc2)n1
7. Cn1cc(-c2ccc3c(c2)CCN3C(=O)Cc2cccc(C(F)(F)F)c2)c2c(N)ncnc21
8. O=C(Nc1cccnc1)N1CCC(Cc2cccc(Oc3ccc(C(F)(F)F)cn3)c2)CC1

Result:
1: 110; 2: 110; 3: 109; 4: 118; 5: 74.9; 6: 112; 7: 125; 8: 117

Dear colleague, could you send me viability for each of the items below? Thanks.
1. Cc1c(NC(=O)OC[C@@H]2COCCN2)cn2ncnc(Nc3ccc4c(cnn4Cc4cccc(F)c4)c3)c12
2. COc1ccc2cc(-c3nc(-c4ccc(S(C)=O)cc4)[nH]c3-c3ccncc3)ccc2c1 (configuration not stated)
3. NC(=O)c1ccc(I)c([N+](=O)[O-])c1
4. CC[C@@H]1C(=O)N(C)c2cnc(Nc3ccc(C(=O)NC4CCN(C)CC4)cc3OC)nc2N1C1CCCC1

Result:
1: 133; 2: 122; 3: 117; 4: 30.3

* * *

Test: viability loss with induced miR-34 in A549 – imaging, A549 dox-inducible miR-34, nuclei and caspase counts, primary screen (AID 1347080)
Settings: A549 miR-34 inducible, Hoechst nuclei count, 48 h; measured here: total cells with miR-34 induction; stronger effect = lower value
true (1) if cell count is below 6000. false (0) if not; exact matches included in false (0).

Take a look at these entries with their results.
> print(dat)
                                item.smiles  assigned.label
1  Cc1c[nH]c(=O)n(CCCN2CCN(c3ccccc3OCC(F)(F)F)CC2)c1=O       false (0)
2  CC(C)[C@H](CO)Nc1nc(Nc2cc(N)cc(Cl)c2)c2ncn(C(C)C)c2n1        true (1)
3       COc1ccc([C@H]2CNC(=O)C2)cc1OC1CCCC1       false (0)
4  Cc1ccc(C(=O)Nc2ccc(CN3CCN(C)CC3)c(C(F)(F)F)c2)cc1C#Cc1cnc2cccnn12        true (1)

Request: Just wondering, is cell count of Cc1ccc2nc(NC(=O)CSc3nc4c(c(=O)n3-c3ccccc3)SCC4)sc2c1 below 6000?
Result: false (0)

Request: Problem: For the compound O=C(Cc1ccccc1)Nc1nc2ccc(Cl)cc2c2nc(-c3ccco3)nn12 , is cell count under 6000?
Result: false (0)

Request: Would you kindly verify if cell count of COc1cccc(C=NC=Nc2cccc(OC)c2)c1 is strictly less than 6000?
Result: false (0)

Request: Please determine if Nc1nc(-c2ccc(Cl)c(Cl)c2)c(-c2ccncc2)s1 is below 6000 in terms of cell count.
Result: false (0)

Request: cell count strictly < 6000 for this compound? C1CC[C@H]2[N]=[Pt]=[N][C@@H]2C1.O=C(O)C(=O)O
Result: true (1)

* * *

Consider the following compounds; for each one, report its viability.
Assay: drug combination growth inhibition, ovarian cancer – cell-based, oncology-focused library, rucaparib conditional, profiling panel (AID 1508598)
Conditions: patient-derived ovarian cancer cells, CellTiter-Glo viability, 144 h; at 5 µM; OCI-P5x cells; without rucaparib; stronger effect = lower value
Give bare numbers, in %.

// below: answered compounds
> print(dat)
                                   compound  parameter.measured  units.label  reported.result
1  CC1COC2(CCN(c3nc(=O)c4cc(C(F)(F)F)cc([N+](=O)[O-])c4s3)CC2)O1 (stereo not drawn)           viability            %              105
2  CC(C)[C@H](C(=O)Nc1ccc(C(=O)NO)cc1)c1ccccc1           viability            %             3.14

Request: # input compound: CC[C@@H]1C(=O)N(C)c2cnc(Nc3ccc(C(=O)NC4CCC(N5CCN(CC6CC6)CC5)CC4)cc3OC)nc2N1C(C)C (stereo partly drawn) ; wanted: its viability
Result: 12.5

* * *

Experiment: viability loss in pontine glioma line – cell-based, SU-DIPG-XIII, MIPE5.0, CellTiter-Glo, qHTS, dose response (AID 1347064);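 on AC50: cells exposed to compound for 48 hours before the viability read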
Conditions: CellTiter-Glo ATP luminescence
Results filed as inconclusive are left out. Active and inactive are the calls of the source. No cut-off is given here; in the data, nearly all actives have AC50 up to about 23 µM.
Result category, one only: T = active, F = inactive

> print(dat)
                                   compound  assigned.label
1  O=C(O)CC(C(=O)O)n1c(O)c(C2=c3cc(Br)ccc3=NC2=O)sc1=S (centres undefined)               F
2  Cc1ccc(NC(=O)Nc2cc(C(F)(F)F)ccc2F)cc1Nc1ccc2c(c1)NC(=O)/C2=C\c1ccc[nH]1               T
3  COc1cc(-c2nn(C3CCC(N4CCN(C(C)=O)CC4)CC3)c3ncnc(N)c23)ccc1NC(=O)c1cc2ccccc2n1C (centres undefined)               T

Continue with the compound presented below.
Request: Field: outcome | Entry: CC1(O)CC(c2nc(-c3ccc4ccc(-c5ccccc5)nc4c3)c3c(N)nccn23)C1 (centres undefined)
Result: T
